Test: RPL19A-GFP modulators, yeast TOR pathway, confirmation, cell-based, S. cerevisiae, flow cytometry, cherry picks, mother/daughter gates (AID 2270)
Conditions: S. cerevisiae RPL19A-GFP strain, 3 h, measured here: mother cell gate, at 10 µM, stronger effect = lower value, 100 = same GFP as DMSO wells
assay_metric: GFP response vs DMSO (%)
Value expressed in %; do not type the unit.

Known GFP response vs DMSO results, listed for orientation:
C(=N\Nc1nc(-c2cccnc2)nc2ccccc12)/c1ccccc1 : 102
Cc1ccc2[nH]c3c(=O)n(CC(=O)N4CCN(C)CC4)ncc3c2c1 : 96.2
CCN(CC)Cc1c(O)ccc2c(C)c(CC(=O)OC)c(=O)oc12 : 100

**Q:** I am curious: what GFP response vs DMSO value has been reported for CSc1nc(N2CCN(c3ccccc3Cl)CC2)c2ccccc2n1 ?
**A:** 95.2

**Q:** I am curious: what GFP response vs DMSO value has been reported for CCOC(=O)c1ccc(NC(=O)CCc2nc(-c3ccccc3)no2)cc1 ?
**A:** 97.5

**Q:** I am curious: what GFP response vs DMSO value has been reported for Cc1cc2ccccn2c1C(=O)c1ccc([N+](=O)[O-])o1 ?
**A:** 94.6

**Q:** I am curious: what GFP response vs DMSO value has been reported for CCn1c(=O)c(C(=O)NCCCO)c(O)c2ccccc21 ?
**A:** 102

###

Reported values of GFP response vs DMSO for individual entries
Test: RPL19A-GFP modulators, yeast TOR pathway, confirmation, cell-based, S. cerevisiae, flow cytometry, cherry picks, mother/daughter gates (AID 2270)
Details: S. cerevisiae RPL19A-GFP strain, 3 h, measured here: daughter cell gate, at 10 µM, stronger effect = lower value, 100 = same GFP as DMSO wells
Value expressed in %; do not type the unit.

**Q:** I am curious: what GFP response vs DMSO value has been reported for CCC(=O)Nc1nc(C)c(-c2csc(Nc3cccc(C(=O)O)c3)n2)s1 ?
**A:** 97.8

**Q:** I am curious: what GFP response vs DMSO value has been reported for CCOC(=O)/C=C1\SCC(=O)N1Cc1nnc(-c2ccccc2Br)o1 ?
**A:** 97.6

**Q:** I am curious: what GFP response vs DMSO value has been reported for COCc1nnc(NC(=O)c2ccc(S(=O)(=O)N(C)c3ccccc3)cc2)o1 ?
**A:** 96.6

**Q:** I am curious: what GFP response vs DMSO value has been reported for CCOc1ccccc1C1N=C(c2ccc(OC)cc2)CC(c2ccccc2O)N1 (stereo unspecified) ?
**A:** 103

**Q:** I am curious: what GFP response vs DMSO value has been reported for O=C(O/N=C(\c1ccccc1)c1ccncc1)c1ccccc1Cl ?
**A:** 74.3

**Q:** I am curious: what GFP response vs DMSO value has been reported for O=C1c2cccc3cccc(c23)C(=O)N1c1nncs1 ?
**A:** 102

###

Assay: inhibitors of fungal efflux pumps CDR1, CDR2, MDR1, pilot screen, validation compound set, multiplex, phenotypic (AID 588506);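 also: Nile Red retained in cells so higher fluorescence means more efflux inhibition; 0 = negative control wells and 1 = enniatin B 25 µM full block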
Details: S. cerevisiae pump-expressing triplex, Nile Red efflux flow cytometry; at 10 µM; stronger effect = higher value; the pumps come from Candida albicans
assay_metric: efflux inhibition (fraction of control)
Please state the value as a number alone, without comment.

COc1cc(NC(=O)N[C@@H](Cc2ccccc2)C(=O)O)cc(OC)c1 : -0.09

**Q:** I am curious: what efflux inhibition (fraction of control) value has been reported for CCOC(=O)C1C(=O)CC(C)(O)C(C(=O)OCC)C1/C=C/c1ccccc1 (centres undefined) ?
**A:** -0.07

**Q:** I am curious: what efflux inhibition (fraction of control) value has been reported for CNS(=O)(=O)c1ccc(C)cc1 ?
**A:** 0.1

**Q:** I am curious: what efflux inhibition (fraction of control) value has been reported for CCOc1ccc(CCn2c(-c3ccco3)nc3ccccc3c2=O)cc1OCC ?
**A:** 0.27

**Q:** I am curious: what efflux inhibition (fraction of control) value has been reported for Cc1ccc(-n2ncc3c(Nc4cccc(C(=O)O)c4)ncnc32)cc1 ?
**A:** 0.1

**Q:** I am curious: what efflux inhibition (fraction of control) value has been reported for CC(=O)c1c(N)nc2n(c1=O)CCCCC2 ?
**A:** -0.09

**Q:** I am curious: what efflux inhibition (fraction of control) value has been reported for CCCCC(=O)O[C@]1(C(=O)CO)CC[C@H]2[C@@H]3CCC4=CC(=O)CC[C@]4(C)[C@H]3[C@@H](O)C[C@@]21C ?
**A:** 0.1

**Q:** I am curious: what efflux inhibition (fraction of control) value has been reported for Clc1ccc(Cn2c(CN3CCCC3)nc3ccccc32)cc1 ?
**A:** -0.43

**Q:** I am curious: what efflux inhibition (fraction of control) value has been reported for CCCCC1C(=O)N(c2ccccc2)N(c2ccccc2)C1=O ?
**A:** -0.06

###

Assay: modulators of LAP4-GFP expression in yeast, primary screen, S. cerevisiae, multiplex flow cytometry (AID 1873)
Conditions: 3 h, at 10 µM, stronger effect = higher value
Results filed as inconclusive are left out.
Reported values of GFP response vs DMSO for individual entries
Value expressed in %; do not type the unit.

**Q:** I am curious: what GFP response vs DMSO value has been reported for O=C1N=c2ccccc2=C1c1[nH]c(=S)[nH]c1O ?
**A:** 81.3

**Q:** I am curious: what GFP response vs DMSO value has been reported for CCN(Cc1ccncc1)Cc1nc(Cc2ccccc2Cl)no1 ?
**A:** 95.4

###

Assay: RPL19A-GFP modulators, yeast TOR pathway, confirmation, cell-based, S. cerevisiae, flow cytometry, cherry picks, mother/daughter gates (AID 2270)
Details: S. cerevisiae RPL19A-GFP strain, 3 h, measured here: daughter cell gate, at 10 µM, stronger effect = lower value, 100 = same GFP as DMSO wells
Reported values of GFP response vs DMSO for individual entries
Value expressed in %; do not type the unit.

**Q:** I am curious: what GFP response vs DMSO value has been reported for O=C(Nc1nc(-c2ccccc2)cs1)c1ccc(Br)o1 ?
**A:** 101

**Q:** I am curious: what GFP response vs DMSO value has been reported for O=C(CSCc1cccc(Br)c1)N=Nc1c(O)[nH]c2ccccc12 ?
**A:** 67.8

**Q:** I am curious: what GFP response vs DMSO value has been reported for CCS(=O)(=O)N1N=C(c2ccc(NS(C)(=O)=O)cc2)CC1c1ccccc1 (centres undefined) ?
**A:** 98.4

**Q:** I am curious: what GFP response vs DMSO value has been reported for CC(=O)c1sc(NC(=O)c2ccco2)nc1-c1ccccc1 ?
**A:** 101

**Q:** I am curious: what GFP response vs DMSO value has been reported for CCN(CC)S(=O)(=O)c1ccc(O)c(C(=O)OCC(=O)NC2CCCC2)c1 ?
**A:** 97.9

###

Biological target: Integrin beta-1 (Homo sapiens) + Integrin alpha-4 (Homo sapiens) (UniProt P13612+P05556)
Sequence (P05556 whole entry, looked up): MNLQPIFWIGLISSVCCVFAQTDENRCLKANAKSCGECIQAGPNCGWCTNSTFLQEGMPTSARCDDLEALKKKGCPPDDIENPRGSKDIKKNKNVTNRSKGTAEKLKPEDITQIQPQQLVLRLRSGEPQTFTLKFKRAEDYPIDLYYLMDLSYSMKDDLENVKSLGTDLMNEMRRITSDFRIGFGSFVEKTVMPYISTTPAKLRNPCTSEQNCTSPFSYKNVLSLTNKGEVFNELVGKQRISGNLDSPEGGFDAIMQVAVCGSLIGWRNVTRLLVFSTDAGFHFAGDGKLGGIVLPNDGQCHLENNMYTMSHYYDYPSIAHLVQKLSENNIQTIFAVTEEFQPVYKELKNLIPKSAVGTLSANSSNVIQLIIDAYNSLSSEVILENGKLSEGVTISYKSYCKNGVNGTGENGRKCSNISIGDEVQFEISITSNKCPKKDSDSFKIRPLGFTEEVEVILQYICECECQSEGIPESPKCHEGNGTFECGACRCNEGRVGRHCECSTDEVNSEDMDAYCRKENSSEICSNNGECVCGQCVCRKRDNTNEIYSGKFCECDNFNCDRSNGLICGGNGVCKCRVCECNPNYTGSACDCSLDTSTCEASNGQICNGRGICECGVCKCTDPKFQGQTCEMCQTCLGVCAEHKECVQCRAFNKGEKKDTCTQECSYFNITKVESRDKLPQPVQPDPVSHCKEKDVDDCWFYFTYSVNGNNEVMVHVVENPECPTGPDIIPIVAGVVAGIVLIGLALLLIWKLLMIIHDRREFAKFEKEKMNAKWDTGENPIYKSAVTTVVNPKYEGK
Sequence (P13612 whole entry, looked up): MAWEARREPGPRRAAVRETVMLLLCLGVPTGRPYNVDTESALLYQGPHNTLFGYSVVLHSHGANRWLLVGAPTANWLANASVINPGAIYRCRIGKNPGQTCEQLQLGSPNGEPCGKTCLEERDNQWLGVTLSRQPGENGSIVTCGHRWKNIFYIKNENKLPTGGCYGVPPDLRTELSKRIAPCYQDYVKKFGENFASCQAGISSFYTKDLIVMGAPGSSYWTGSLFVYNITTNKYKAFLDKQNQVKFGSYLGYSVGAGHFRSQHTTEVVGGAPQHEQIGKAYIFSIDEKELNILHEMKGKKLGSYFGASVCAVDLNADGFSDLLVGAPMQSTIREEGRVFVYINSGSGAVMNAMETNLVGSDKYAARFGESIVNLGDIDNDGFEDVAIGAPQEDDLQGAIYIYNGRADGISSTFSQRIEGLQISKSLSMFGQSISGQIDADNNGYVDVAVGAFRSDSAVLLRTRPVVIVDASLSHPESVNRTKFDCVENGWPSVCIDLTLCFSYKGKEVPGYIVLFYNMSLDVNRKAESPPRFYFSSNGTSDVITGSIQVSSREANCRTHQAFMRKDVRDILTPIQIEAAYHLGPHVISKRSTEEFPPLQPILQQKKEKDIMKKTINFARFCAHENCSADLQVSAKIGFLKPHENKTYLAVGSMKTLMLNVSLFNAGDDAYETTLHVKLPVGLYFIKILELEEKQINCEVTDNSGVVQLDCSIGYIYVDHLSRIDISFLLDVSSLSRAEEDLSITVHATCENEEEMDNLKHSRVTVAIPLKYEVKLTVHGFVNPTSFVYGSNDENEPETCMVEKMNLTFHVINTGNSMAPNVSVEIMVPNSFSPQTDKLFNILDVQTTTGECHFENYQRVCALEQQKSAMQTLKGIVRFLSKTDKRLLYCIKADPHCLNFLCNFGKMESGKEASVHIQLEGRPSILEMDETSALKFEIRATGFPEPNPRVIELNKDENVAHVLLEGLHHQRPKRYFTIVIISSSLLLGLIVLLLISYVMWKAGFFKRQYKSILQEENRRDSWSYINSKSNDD
Experiment: inhibition of HUTS-21 binding to VLA-4, pilot screen, VLA-4 allosteric modulator project, U937 cells, HUTS-21 mAb, flow cytometry, validation set (AID 2674);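 also: antibody binding induced by the VLA-4 ligand LDV present at three times its Kd; 0% = LDV ligand with antibody and no compound and 100% = antibody without LDV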
Details: HUTS-21 LIBS mAb binding, at 6.7 µM, stronger effect = higher value, binding induced by LDV ligand
assay_metric: inhibition (%)
Value expressed in %; do not type the unit.

Known inhibition results, listed for orientation:
Cc1nc(C(=O)Nc2ccccc2Cl)cc2c1[nH]c1ccccc12 : -1.17
CCOC(=O)COc1ccc2c(=O)c(-c3ccccc3)coc2c1 : 21

**Q:** I am curious: what inhibition value has been reported for COc1ccc(-c2c(C)c3ccc(OCC(C)=O)cc3oc2=O)cc1 ?
**A:** 3.49

**Q:** I am curious: what inhibition value has been reported for CC(C)(C)c1ccc(C(O)CCCN2CCC(C(O)(c3ccccc3)c3ccccc3)CC2)cc1 (stereo unspecified) ?
**A:** 38.9

###

Assay: RPL19A-GFP modulators, yeast TOR pathway, confirmation, cell-based, S. cerevisiae, flow cytometry, cherry picks, mother/daughter gates (AID 2270)
Conditions: S. cerevisiae RPL19A-GFP strain, 3 h, measured here: mother cell gate, at 10 µM, stronger effect = lower value, 100 = same GFP as DMSO wells
assay_metric: GFP response vs DMSO (%)
Value expressed in %; do not type the unit.

Cc1ccc(/C=C/C(=O)c2ccccc(=O)c2O)c(C)c1 : 93.5
CCCc1ccc(OCC(=O)NNC(=S)NC(=O)c2ccco2)cc1 : 97.1
COc1ccc(OC(=O)c2cccc(S(=O)(=O)N3CCCC3)c2)cc1 : 96.1
CC1CN(c2nc3ccccn3c(=O)c2/C=C(\C#N)C(=O)N2CCOCC2)CC(C)O1 (stereo not drawn) : 98.4
COc1ccc2c(c1)c(/C=C/c1cc[n+](C)cc1)cn2C : 106
O=C1c2ccsc2SCCN1Cc1ccccc1Cl : 95.7

**Q:** I am curious: what GFP response vs DMSO value has been reported for O=C(Cn1c(=O)oc2cc(S(=O)(=O)N3CCCC3)ccc21)Nc1ccccc1Br ?
**A:** 94.3

**Q:** I am curious: what GFP response vs DMSO value has been reported for CCN(CC)c1ccc(/C=C2\SC(=O)N(C(C)C)C2=O)o1 ?
**A:** 96.5

**Q:** I am curious: what GFP response vs DMSO value has been reported for O=S(=O)(c1ccccc1)N1N=C(c2ccccc2)CC1c1ccccc1 (stereo not drawn) ?
**A:** 103

**Q:** I am curious: what GFP response vs DMSO value has been reported for Cc1cc(N=Nc2ccccc2C(=O)O)c(C)c(C)c1O ?
**A:** 99.3

**Q:** I am curious: what GFP response vs DMSO value has been reported for Cc1nc2ccccc2c(=O)n1/N=C/c1ccc([N+](=O)[O-])o1 ?
**A:** 104

Hello, the source for this data is PubChem BioAssay, in case you need it.
